// provenance: patent US12338203B2

- assayedTarget: human LPAR1 (Homo sapiens, UniProt Q92633)
- Construct: expressed in transfected cells
- Sequence (Q92633 whole entry): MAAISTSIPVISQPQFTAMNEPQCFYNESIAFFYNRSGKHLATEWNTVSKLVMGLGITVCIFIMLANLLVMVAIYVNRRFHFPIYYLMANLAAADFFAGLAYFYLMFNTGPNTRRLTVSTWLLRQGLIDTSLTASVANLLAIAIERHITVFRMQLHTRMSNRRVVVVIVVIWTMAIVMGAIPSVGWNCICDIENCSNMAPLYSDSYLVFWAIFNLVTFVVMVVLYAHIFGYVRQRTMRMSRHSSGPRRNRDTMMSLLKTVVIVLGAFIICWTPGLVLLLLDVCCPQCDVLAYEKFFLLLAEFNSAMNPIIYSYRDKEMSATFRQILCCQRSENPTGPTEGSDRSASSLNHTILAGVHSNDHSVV
- protocolNotes: Test Example 1: antagonism against response of LPA-induced increase in intracellular Ca2+ concentration in RH7777 cells stably expressing human LPAR1
- Type: cell-based
- conditionDetails: RH7777 cells stably expressing human LPAR1; Fluo-4 fluorescence, FDSS6000; read-out: IC50 value (concentration producing 50% antagonism against response of LPA-induced increase in intracellular Ca2+ concentration) (converted)
- Method: (1) Preparation of RH7777 cells stably expressing human LPAR1 The human LPAR1 expression vector was transfected into RH7777 cells to acquire human LPAR1 expressing cells. […] The cells were seeded onto the Poly-D-Lysine 96 well black plate and incubated overnight. […] In FDSS6000 (Hamamatsu Photonics K.K.), LPAs were added, and the change in intracellular Ca^2+ concentration was detected using the fluorescence value of a wavelength of 540 nm by an excitation wavelength of 480 nm as an indicator. […]
outcomeMeasure: IC50 (nM)

Use these answered entries as a reference point.
>>> numericvalue("CCOc1cc(C(C)N(CCOCc2ccccc2)C(=O)NC2(C(=O)O)CC2)c(Cl)c(OCC)c1C1CC1 (stereo not shown)")
0.919
>>> numericvalue("CCOc1c(C(C)=O)ccc([C@@H](C)N(CCO[C@H](C)c2ccccc2)C(=O)NC2(C(=O)O)CC(F)(F)C2)c1C")
2.62
>>> numericvalue("CCNc1cc(C(C)N(CCCCc2ccccc2)C(=O)NC2(C(=O)O)Cc3ccccc3C2)cc(OCC)c1C(C)=O (stereo not shown)")
20.7
>>> numericvalue("CCOc1cc([C@@H](C)N(CCO[C@@H](C)c2ccccc2)C(=O)N[C@]2(C(=O)O)C[C@@H](OC)C2)cc(OCC)c1C1CC1")
1.08
>>> numericvalue("CCOc1cc([C@@H](C)N(CCC(F)(F)Cc2ccccc2)C(=O)NC2CC(C(=O)O)C2)cc(OCC)c1C1CC1 (stereo partly shown)")
80.8
>>> numericvalue("CCOc1cc(OCC)nc(C(C)N(CCCCc2ccccc2)C(=O)NC2(C(=O)O)CC(F)(F)C2)c1 (stereo not shown)")
5.12
>>> numericvalue("CCOc1cc([C@@H](C)N(CCCC(F)(F)c2ccccc2)C(=O)N[C@]2(C(=O)O)C[C@@H](OCC)C2)cc(OCC)c1C(C)=O [Example 4-44]")
3.34
>>> numericvalue("CCOc1cc([C@@H](C)N(CCC(F)(F)Cc2ccccc2)C(=O)NC2(C(=O)O)CC(OC)C2)c(Cl)c(OCC)c1C(C)=O (stereo partly shown) [Example 5-42]")
7.45
>>> numericvalue("CCOc1cc([C@@H](C)N(CCCCc2ccccc2)C(=O)NC2(C(=O)O)CC(OCC)C2)cc(OCC)c1C(C)=O (stereo partly shown) [Example 1-97]")
3.94
>>> numericvalue("CCOc1cc([C@@H](C)N(CCCCc2ccccc2)C(=O)NC2CC(C(=O)O)N(C(C)=O)C2)cc(OCC)c1C(C)=O (stereo partly shown) [Example 1-163]")
20.5

(1) CCOc1c(C(C)=O)ccc([C@@H](C)N(CCO[C@H](C)c2ccccc2)C(=O)NC2(C(=O)O)CCOCC2)c1C
(2) CCOc1cc([C@@H](C)N(CCC(F)(F)Cc2ccccc2)C(=O)N[C@]2(C(=O)O)C[C@@H](OCC)C2)c(C)c(OCC)c1C
Param pair: 1 , 2 . Output: the one whose IC50 is numerically greater. Answer by quoting the chosen item's label.
2

---

- assayedTarget: human LPAR1 (Homo sapiens, UniProt Q92633)
- Construct: expressed in transfected cells
- protocolNotes: Test Example 1: antagonism against response of LPA-induced increase in intracellular Ca2+ concentration in RH7777 cells stably expressing human LPAR1
- Type: cell-based
- conditionDetails: RH7777 cells stably expressing human LPAR1; Fluo-4 fluorescence, FDSS6000; read-out: IC50 value (concentration producing 50% antagonism against response of LPA-induced increase in intracellular Ca2+ concentration) (converted)
outcomeMeasure: IC50 (nM)

Solved entries (count: 5):
>>> numericvalue("CCOc1cc(C(C)N(CCCCc2ccccc2)C(=O)NC(CCc2ccccc2)C(=O)O)cc(OCC)c1C (stereo not drawn)")
129
>>> numericvalue("CCOc1cc(C(C)N(CCCCc2ccccc2)C(=O)NC2(C(=O)O)CCCC2)cc(OCC)c1C (stereo not drawn)")
18.7
>>> numericvalue("CCOc1cc([C@@H](C)N(CCCCc2ccccc2)C(=O)NC2CC(C(=O)O)C2)cc(OCC)c1C1CC1 (stereo partly drawn)")
6.48
>>> numericvalue("CCOc1cc([C@@H](C)N(CCCCc2ccccc2)C(=O)NCCCC(=O)O)cc(OCC)c1C")
280
>>> numericvalue("CC(c1cc(C(F)(F)F)cc(C(F)(F)F)c1)N(CCCCc1ccccc1)C(=O)NC1(C(=O)O)CC(F)(F)C1 (stereo not drawn)")
75.8

(I) CCOc1c(C(C)=O)ccc([C@@H](C)N(CCCCc2ccccc2)C(=O)NC2CCC2C(=O)O)c1C (stereo partly drawn)
(II) CCOc1cc(C(C)N(CCCCc2ccccc2)C(=O)NC2(C(=O)O)CC(F)(F)C2)cc(OCC)c1Br (stereo not drawn)
(III) CCOc1cc(C(C)N(CCCCc2ccccc2)C(=O)NC2(P(=O)(O)O)CCCC2)cc(OCC)c1C (single isomer, unassigned) [Example 8-1]
Rank descending by IC50. Form entry: labels listed in requested order.
III, I, II

(A) CCOc1cc(C(C)N(CCCCc2ccccc2)C(=O)NC2CC(C(=O)O)C2)cc(OCC)c1C(C)=O (stereo not drawn) [Example 1-129]
(B) CCOc1cc([C@@H](C)N(CCCCc2cccc(C)c2)C(=O)NC2(C(=O)O)CC(F)(F)C2)cc(OCC)c1C
Which entry shows the lesser value of IC50 here, A or B ? The response must carry the label of the picked entry.
B
(B: 4.05 nM, A: 9.98 nM)

---

- assayedTarget: human LPAR1 (Homo sapiens, UniProt Q92633)
- Construct: expressed in transfected cells
- protocolNotes: Test Example 1: antagonism against response of LPA-induced increase in intracellular Ca2+ concentration in RH7777 cells stably expressing human LPAR1
- Format: cell-based
- conditionDetails: RH7777 cells stably expressing human LPAR1; Fluo-4 fluorescence, FDSS6000; read-out: IC50 value (concentration producing 50% antagonism against response of LPA-induced increase in intracellular Ca2+ concentration) (converted)
- Experimental: (1) Preparation of RH7777 cells stably expressing human LPAR1 The human LPAR1 expression vector was transfected into RH7777 cells to acquire human LPAR1 expressing cells. […] The cells were seeded onto the Poly-D-Lysine 96 well black plate and incubated overnight. […] In FDSS6000 (Hamamatsu Photonics K.K.), LPAs were added, and the change in intracellular Ca^2+ concentration was detected using the fluorescence value of a wavelength of 540 nm by an excitation wavelength of 480 nm as an indicator. […]
outcomeMeasure: IC50 (nM)

>>> numericvalue("CCCCC(NC(=O)N(CCCCc1ccccc1)[C@H](C)c1cc(OCC)c(C)c(OCC)c1)C(=O)O (stereo partly drawn) [Example 1-4]")
25.5

(I) CCOc1c(C(C)=O)ccc([C@@H](C)N(CCCCc2ccccc2)C(=O)NC2(C(=O)O)CC(OC)C2)c1C (stereo partly drawn) [Example 1-93]
(II) CCOc1cc(C(C)N(CCCCc2ccccc2)C(=O)NC2(C(=O)O)CC(F)(F)C2)cc(OCC)c1C(=O)NC (stereo not drawn) [Example 1-61]
(III) CCOc1cc([C@@H](C)N(CCC(F)(F)Cc2ccccc2)C(=O)NC2(C(=O)O)CC2)cc(OCC)c1C1CC1 [Example 4-80]
hey, can you rank those compounds up there by IC50? biggest number first please Answer format: list of labels, ordered as asked.
II, III, I
(II: 103 nM, III: 23.6 nM, I: 4 nM)

(A) CCOc1cc([C@@H](C)N(CCCOc2ccccc2)C(=O)NC2(C(=O)O)CC(F)(F)C2)cc(OCC)c1C [Example 4-98]
(B) CCOc1c(C(C)=O)ccc([C@@H](C)N(CCO[C@H](C)c2ccccc2)C(=O)NC2(C(=O)O)CCC2)c1C [Example 4-148]
Lower IC50: A or B ? Choose, then provide that item's label.
B
(B: 3.22 nM, A: 5.48 nM)

(A) COc1cc(C(C)N(CCOCc2ccccc2)C(=O)NC2(C(=O)O)CCC2)c(Cl)c(OC)c1C(C)=O (stereo not drawn) [Example 5-132]
(B) CCOc1cc([C@@H](C)N(CCOC(C)(C)c2ccccc2)C(=O)NC2(C(=O)O)CC(F)(F)C2)cc(OCC)c1C1CC1 [Example 4-160]
So which one has the bigger IC50 here, A or B ? The response must carry the label of the picked entry.
B
(B: 10.4 nM, A: 4.97 nM)

(1) O=C(NC1(C(=O)O)CC(F)(F)C1)N(CCCCc1ccccc1)C1CCc2c(Cl)cc(Cl)cc21 (stereo not drawn) [Example 5-116]
(2) CCOc1cc([C@@H](C)N(CCO[C@@H](C)c2ccccc2)C(=O)NC2(C(=O)O)CC(OC)C2)c(Cl)c(OCC)c1C(C)O (single isomer, unassigned) [Example 5-57]
(3) CCOc1cc(C(C)N(CCOCc2ccccc2)C(=O)NC2(C(=O)O)CC(OCC)C2)c(Cl)c(OCC)c1C(C)=O (stereo not drawn) [Example 5-220]
(4) CCOc1cc(C(C)N(CCOCc2ccccc2)C(=O)NC2(C(=O)O)CCC2)c(C)c(OCC)c1C1CC1 (stereo not drawn) [Example 5-192]
Thanks in advance: please rank these 4 entries by IC50, highest to lowest. // format: requested-order list of labels
1, 2, 3, 4
